- system-name: mouse TMEM16A mutant Q637A (Mus musculus, UniProt Q8BHY3, Q637A)
- Construct: expressed in transfected cells; host or cells: HEK293T
- experimental-protocol: Inside-out patch recording of 1PBC block, mutant Q637A
- Format: cell-based
- assay-context: -60 mV; 2 µM Ca2+
- Protocol: HEK293T cells (ATCC CRL-1573) were maintained in Dulbecco’s modified Eagle’s medium (DMEM; Sigma-Aldrich) supplemented with 10 U ml^−1 penicillin, 0.1 mg ml^−1 streptomycin (Sigma-Aldrich), 2 mM L-glutamine (Sigma-Aldrich), and 10% FBS (Sigma-Aldrich) in a humidified atmosphere containing 5% CO2 at 37 °C. […]
property: pIC50
Just so you know, pIC50 here is -log10 of the concentration in molar units; reply with that number alone.

Data request: Entry under review: N#Cc1c(C(F)(F)F)cc(O)n2c1nc1ccccc12 [1PBC] . Reported pIC50?
Data returned: 5.39

---

- system-name: mouse TMEM16A mutant V599A (Mus musculus, UniProt Q8BHY3, V599A)
- Construct: expressed in transfected cells; host or cells: HEK293T
- experimental-protocol: Inside-out patch recording of 1PBC block, mutant V599A
- Type: cell-based
- assay-context: 0 mV; 15 µM Ca2+
property: IC50 (µM)
Write down the numeric answer in µM and omit the unit.

Data request: Find the recorded IC50 belonging to `N#Cc1c(C(F)(F)F)cc(O)n2c1nc1ccccc12` and report it.
Data returned: 69.5

---

- system-name: mouse TMEM16A mutant N546A (Mus musculus, UniProt Q8BHY3, N546A)
- Construct: expressed in transfected cells; host or cells: HEK293T
- experimental-protocol: Inside-out patch recording of 1PBC block, mutant N546A
- Type: cell-based
- assay-context: 100 mV; 2 µM Ca2+
property: pIC50
# log scale: pIC50 equals minus log10 of the concentration in mol/L

Data request: Which measured pIC50 value corresponds to `N#Cc1c(C(F)(F)F)cc(O)n2c1nc1ccccc12` ?
Data returned: 6.63

---

- system-name: mouse TMEM16A mutant I640A (Mus musculus, UniProt Q8BHY3, I640A)
- Construct: expressed in transfected cells; host or cells: HEK293T
- experimental-protocol: Inside-out patch recording of 1PBC block, mutant I640A
- Format: cell-based
- assay-context: -100 mV; 15 µM Ca2+
property: IC50 (µM)
Please respond with the number in µM and leave the unit unwritten.

Data request: Any idea what IC50 was measured for N#Cc1c(C(F)(F)F)cc(O)n2c1nc1ccccc12 [1PBC] ?
Data returned: 60.2

---

- system-name: mouse TMEM16A mutant T518A (Mus musculus, UniProt Q8BHY3, T518A)
- Construct: expressed in transfected cells; host or cells: HEK293T
- experimental-protocol: Inside-out patch recording of 1PBC block, mutant T518A
- Assay type: cell-based
- assay-context: 20 mV; 2 µM Ca2+
- Description: HEK293T cells (ATCC CRL-1573) were maintained in Dulbecco’s modified Eagle’s medium (DMEM; Sigma-Aldrich) supplemented with 10 U ml^−1 penicillin, 0.1 mg ml^−1 streptomycin (Sigma-Aldrich), 2 mM L-glutamine (Sigma-Aldrich), and 10% FBS (Sigma-Aldrich) in a humidified atmosphere containing 5% CO2 at 37 °C. […]
property: pIC50
The value called pIC50 is obtained by taking minus log10 of the concentration in mol/L.

Data request: What value of pIC50 has been recorded for this entry: `N#Cc1c(C(F)(F)F)cc(O)n2c1nc1ccccc12`
Data returned: 5.36

---

- system-name: mouse TMEM16A mutant G510P (Mus musculus, UniProt Q8BHY3, G510P)
- Construct: expressed in transfected cells; host or cells: HEK293T
- Sequence (Q8BHY3 1-960 G510P): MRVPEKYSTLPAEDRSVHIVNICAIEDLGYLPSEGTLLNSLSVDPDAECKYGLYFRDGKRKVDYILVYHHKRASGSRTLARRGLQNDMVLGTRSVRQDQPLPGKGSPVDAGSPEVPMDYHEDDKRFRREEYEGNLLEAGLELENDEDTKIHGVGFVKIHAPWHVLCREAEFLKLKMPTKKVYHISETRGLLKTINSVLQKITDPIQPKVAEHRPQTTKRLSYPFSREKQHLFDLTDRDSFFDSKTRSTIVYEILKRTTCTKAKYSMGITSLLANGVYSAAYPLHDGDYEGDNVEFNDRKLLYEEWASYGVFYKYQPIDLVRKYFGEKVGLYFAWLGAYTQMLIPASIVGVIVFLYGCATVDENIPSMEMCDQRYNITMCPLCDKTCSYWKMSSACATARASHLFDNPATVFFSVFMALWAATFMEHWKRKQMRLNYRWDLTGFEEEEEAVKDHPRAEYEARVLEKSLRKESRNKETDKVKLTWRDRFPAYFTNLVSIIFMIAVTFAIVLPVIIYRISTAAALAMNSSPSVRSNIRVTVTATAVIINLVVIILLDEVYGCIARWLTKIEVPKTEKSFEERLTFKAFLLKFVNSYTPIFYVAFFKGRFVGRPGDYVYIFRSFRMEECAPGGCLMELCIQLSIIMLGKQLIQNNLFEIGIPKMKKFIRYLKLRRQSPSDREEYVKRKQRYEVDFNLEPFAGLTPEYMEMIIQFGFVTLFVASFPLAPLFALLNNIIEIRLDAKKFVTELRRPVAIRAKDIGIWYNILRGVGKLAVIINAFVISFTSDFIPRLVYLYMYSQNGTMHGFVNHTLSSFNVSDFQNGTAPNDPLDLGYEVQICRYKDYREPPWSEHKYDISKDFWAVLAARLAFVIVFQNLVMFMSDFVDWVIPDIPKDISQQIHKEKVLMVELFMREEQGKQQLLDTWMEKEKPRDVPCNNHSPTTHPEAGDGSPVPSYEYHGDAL
- experimental-protocol: Inside-out patch recording of 1PBC block, mutant G510P
- Format: cell-based
- assay-context: G510P; V -100 mV
property: pIC50
Give only the number. pIC50 is defined as minus log10 of concentration in molar units.

Data request: Give pIC50 (mouse TMEM16A mutant G510P (Mus musculus, UniProt Q8BHY3, G510P)) of the following compound: N#Cc1c(C(F)(F)F)cc(O)n2c1nc1ccccc12 [1PBC]
Data returned: 4.06

---

- system-name: mouse TMEM16A mutant R515A (Mus musculus, UniProt Q8BHY3, R515A)
- Construct: expressed in transfected cells; host or cells: HEK293T
- experimental-protocol: Inside-out patch recording of 1PBC block, mutant R515A
- Assay type: cell-based
- assay-context: R515A; V 80 mV
property: IC50 (µM)
Your answer should be a plain number; it is taken to be in µM.

Data request: Bench note: what IC50 did N#Cc1c(C(F)(F)F)cc(O)n2c1nc1ccccc12 [1PBC] show?
Data returned: 91.4

---

- system-name: mouse TMEM16A mutant V543A (Mus musculus, UniProt Q8BHY3, V543A)
- Construct: expressed in transfected cells; host or cells: HEK293T
- Sequence (Q8BHY3 1-960 V543A): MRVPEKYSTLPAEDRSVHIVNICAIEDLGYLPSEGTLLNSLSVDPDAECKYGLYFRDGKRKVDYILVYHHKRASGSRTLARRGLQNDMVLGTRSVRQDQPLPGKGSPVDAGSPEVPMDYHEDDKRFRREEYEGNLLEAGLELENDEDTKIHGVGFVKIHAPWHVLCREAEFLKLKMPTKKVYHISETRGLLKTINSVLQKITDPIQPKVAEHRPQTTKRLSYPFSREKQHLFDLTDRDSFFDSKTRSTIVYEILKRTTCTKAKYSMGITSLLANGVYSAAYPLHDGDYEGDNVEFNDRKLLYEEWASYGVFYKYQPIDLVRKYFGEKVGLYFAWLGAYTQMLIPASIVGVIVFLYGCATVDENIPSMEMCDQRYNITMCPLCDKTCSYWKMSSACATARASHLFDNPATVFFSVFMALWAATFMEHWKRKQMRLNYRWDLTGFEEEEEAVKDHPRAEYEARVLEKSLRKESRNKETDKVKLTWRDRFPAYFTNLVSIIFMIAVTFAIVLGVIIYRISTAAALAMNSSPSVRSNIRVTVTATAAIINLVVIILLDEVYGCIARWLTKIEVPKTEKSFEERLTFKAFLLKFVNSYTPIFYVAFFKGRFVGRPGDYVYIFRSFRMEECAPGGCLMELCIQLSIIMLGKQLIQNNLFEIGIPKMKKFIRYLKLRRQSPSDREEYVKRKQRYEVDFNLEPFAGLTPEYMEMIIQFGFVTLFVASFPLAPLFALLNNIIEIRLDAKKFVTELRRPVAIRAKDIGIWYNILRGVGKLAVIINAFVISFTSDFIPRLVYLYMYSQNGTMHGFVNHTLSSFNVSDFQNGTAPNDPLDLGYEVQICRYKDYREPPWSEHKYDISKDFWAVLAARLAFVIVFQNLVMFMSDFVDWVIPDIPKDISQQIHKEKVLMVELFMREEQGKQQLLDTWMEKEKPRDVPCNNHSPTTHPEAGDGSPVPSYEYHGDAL
- experimental-protocol: Inside-out patch recording of 1PBC block, mutant V543A
- Format: cell-based
- assay-context: V543A; V -80 mV
property: pIC50
// pIC50 is dimensionless: -log10 of concentration (M)

Data request: # pIC50 lookup, item N#Cc1c(C(F)(F)F)cc(O)n2c1nc1ccccc12 [1PBC]
Data returned: 4.66
